- protocol: qHTS profiling of the MIPE4 collection as inhibitors of Plasmodium falciparum (HB3) proliferation (AID 743347)
- measurementSetup: P. falciparum HB3 in erythrocytes, SYBR Green DNA, 72 h; at 28.5 µM (top of the series) unless noted
Criterion: growth, % of control strictly less than 10%. Met: met. Not met: not met.

{"columns": ["compound", "class"],
 "data": [
  ["Cc1ccc(C(=O)Nc2ccc(CN3CCN(C)CC3)c(C(F)(F)F)c2)cc1C#Cc1cnc2cccnn12", "met"],
  ["OCCCNc1cc(-c2ccnc(Nc3cccc(Cl)c3)n2)ccn1", "met"],
  ["COC(=O)C1=C(C)NC(C)=C(C(=O)OCCN2CCN(C(c3ccccc3)c3ccccc3)CC2)C1c1cccc([N+](=O)[O-])c1 (centres undefined)", "not met"],
  ["CN(C1CCc2c(c3ccccc3n2CC(=O)O)C1)S(=O)(=O)c1ccc(F)cc1 (centres undefined)", "not met"],
  ["CC(=O)Nc1nc(C)c(-c2ccc(Cl)c(S(=O)(=O)NCCO)c2)s1", "met"],
  ["Cn1c2cc(S(C)=O)sc2c2cnn(Cc3cccc(N)c3)c(=O)c21 (centres undefined)", "not met"],
  ["Cc1cnc(-c2cnc(NCCNc3ccc(C#N)cn3)nc2-c2ccc(Cl)cc2Cl)[nH]1", "not met"],
  ["COc1ccc(F)c(F)c1C(=O)c1cnc(NC2CCN(S(C)(=O)=O)CC2)nc1N", "not met"],
  ["COc1cc(Nc2ncc(F)c(Nc3ccc4c(n3)N(COP(=O)(O)O)C(=O)C(C)(C)O4)n2)cc(OC)c1OC", "not met"],
  ["Cc1c(NC(=O)OC[C@@H]2COCCN2)cn2ncnc(Nc3ccc4c(cnn4Cc4cccc(F)c4)c3)c12", "not met"],
  ["CC(C)c1cc(-c2n[nH]c(=O)n2-c2ccc3c(ccn3C)c2)c(O)cc1O", "met"],
  ["Cc1[nH]c2ccccc2c1CCNCc1ccc(C=CC(=O)NO)cc1", "met"],
  ["Cc1ccc(-c2ncn(-c3ccc(Nc4nccc(-c5cccc(N6CCOCC6)c5)n4)cc3)n2)cn1", "met"],
  ["C[C@]12CC[C@H](O)CC1=CCC1C2CC[C@]2(C)C(n3cnc4ccccc43)=CCC12 (some centres undefined)", "met"],
  ["O=C(O)c1ccc2cc(-c3ccc(O)c(C45CC6CC(CC(C6)C4)C5)c3)ccc2c1", "not met"],
  ["Cc1cc(Nc2ncnc3ccc(-c4ccc(CNCCS(C)(=O)=O)o4)cc23)ccc1Oc1ccn2ncnc2c1", "met"]
]}
